- targetSystem: T1, Human IL-11 (human, UniProt P20809 22-199); note: test concentration or dose not given here
- T1 sequence: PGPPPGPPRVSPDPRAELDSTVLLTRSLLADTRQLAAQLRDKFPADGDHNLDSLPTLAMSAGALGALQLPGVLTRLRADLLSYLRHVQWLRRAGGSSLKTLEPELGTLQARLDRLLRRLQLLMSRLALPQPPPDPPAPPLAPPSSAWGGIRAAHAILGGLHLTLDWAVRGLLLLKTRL
- assayProtocol: cell-based or functional assay
Listed next: entries and their corresponding MMP2 production, Experiment 1 (human atrial fibroblasts + TGFB1).
measuredParameter: MMP2 production, Experiment 1 (human atrial fibroblasts + TGFB1)

# binder, result
data = [
    ("YU100-H05 (antibody) QVQLVESGGGVVQPGRSLRLSCAASGFTFSSYGMHWVRQAPGKGLEWVAVISYDGSNKYYADSVKGRFTISRDNSKNTLYLQMNSLRAEDTAVYYCAKIGATDPLDYWGQGTLVTVSSGSASAPKLEEGEFSEARVQAVLTQPRSVSGSPGQSITISCTGTGSNVGGYNYVSWYQQHPGQAPKLMIYDVSKRPSGVPDRFSGSKSGNTASLTISGLQAEDEADYYCCSYAGTYTWVFGGGTKLTVL", "57.1 ng/mL"),
    ("YU100-B01 (antibody) QVQLVQSGGGVVQPGRSLRLSCAASGFTFSSYGMHWVRQAPGKGLEWVAVISYDGSNKYYADSVKGRFTISRDNSKNTLYLQMNSLRAEDTAVYYCAKIGATDPLDYWGQGTLVTVSSGSASAPKLEEGEFSEARVQSALTQPRSVSGSPGQSVTISCTGTNTDVGAYNYVSWYQQYPGKAPKLIIYDVSKRPSGVPDRFSGSKSGNTASLTISGLQAEDEADYYCCSYAGSYSWVFGGGTKLTVL", "52.5 ng/mL"),
    ("YU100-D05 (antibody) QVQLQQSGGGVVQPGRSLRLSCAASGFTFSSYGMHWVRQAPGKGLEWVAVISYDGSNKYYADSVKGRFTISRDNSKNTLYLQMNSLRAEDTAVYYCAKIGATDPLDYWGQGTLVTVSSGSASAPKLEEGEFSEARVQSALTQPASVSGSPGQLITISCTGTNSDVGGYNYVSWYQQHPGKAPKLMIYDVSNRPSGVSNRFSGSKSGNTASLTISGLQAEDEADYYCCSYAGSYTWVFGGGTKLTVLGQPKAAPSVTLFPPSS", "53.3 ng/mL"),
]
